src = patent US8765779B2

- system under test: human 5-HT6 receptor (Homo sapiens)
- Construct: host or cells: CHO-K1 cells, stably transfected; membranes prepared in house
- Sequence (P50406 whole entry): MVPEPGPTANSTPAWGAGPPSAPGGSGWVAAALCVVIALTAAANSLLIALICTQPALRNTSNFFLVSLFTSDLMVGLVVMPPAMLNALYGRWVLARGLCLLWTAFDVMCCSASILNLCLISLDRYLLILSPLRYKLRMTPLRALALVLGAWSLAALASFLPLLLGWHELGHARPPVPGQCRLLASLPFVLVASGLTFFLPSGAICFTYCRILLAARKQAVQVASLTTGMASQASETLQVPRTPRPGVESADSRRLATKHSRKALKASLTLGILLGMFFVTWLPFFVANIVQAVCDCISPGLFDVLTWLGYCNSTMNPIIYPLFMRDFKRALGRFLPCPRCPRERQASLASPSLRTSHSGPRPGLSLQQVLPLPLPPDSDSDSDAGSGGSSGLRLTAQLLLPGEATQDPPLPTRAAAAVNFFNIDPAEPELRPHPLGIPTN
- test protocol: Human 5-HT6 Receptor Binding Assay ([3H]LSD displacement, scintillation beads)
- protocol conditions: membranes of CHO-K1 cells with recombinant human 5-HT6, 4 nM [3H]LSD; Table 1, class symbols; read-out: h5-HT6 (Ki)
Listed here: items and their measured Ki.

molecule	test readout	recorded value
O=S(=O)(c1cc(F)cc(F)c1)c1ccc2c3c(oc2c1)C1(CCOC1)NCC3 (stereo not drawn) [Example 305]	Ki	< 500 nM

Field request: Ki | item: CC(C)C1NCCc2c1oc1cc(S(=O)(=O)c3cccc(F)c3)ccc21 (stereo not drawn)
< 500 nM

What value of Ki has been reported for the following molecule? "CC1(C)NCCc2c1oc1cc(S(=O)(=O)c3cncc(Cl)c3)ccc21"
< 500 nM

Given the entry Cc1c(S(=O)(=O)Oc2ccc3c(c2)OC2CNCCC32)sc2ccc(Cl)cc12 (stereo not drawn) [Example 796] , report its measured Ki.
< 500 nM

Tell me the measured Ki of CN(C)C(=O)c1cccc(S(=O)(=O)c2ccc3c(c2)OC2CNCCC32C)c1 (stereo not drawn) , please.
> 1000 nM

What value of measured Ki is listed for O=S(=O)(Cc1ccccc1Cl)Oc1ccc2c(c1)C1CCNCC1O2 (stereo not drawn) ?
> 1000 nM

Report Ki for O=S(=O)(Oc1ccc2c(c1)OC1CNCCC21)c1cc(Cl)cc(Cl)c1 (stereo not drawn) please.
< 500 nM

What value of Ki has been reported for the following molecule? O=S(=O)(c1ccc2c(c1)C1CCNCC1O2)c1ccccc1Cl (stereo not drawn)
500 to 1000 nM

Which Ki value is on record for O=S(=O)(Oc1ccc2c(c1)OC1CN(C3CCCC3)CCC21)c1ccc(Cl)cc1 (stereo not drawn) ?
> 1000 nM

---

Reported Ki by item:
- system under test: human 5-HT6 receptor (Homo sapiens)
- Construct: host or cells: CHO-K1 cells, stably transfected; membranes prepared in house
- test protocol: Human 5-HT6 Receptor Binding Assay ([3H]LSD displacement, scintillation beads)
- protocol conditions: membranes of CHO-K1 cells with recombinant human 5-HT6, 4 nM [3H]LSD; Table 1, class symbols; read-out: h5-HT6 (Ki)
Structures can show the parent of a compound that is named as a salt.

Solved entries:
compound	Ki
O=S(=O)(c1ccc2c(c1)C1CCNCC1O2)c1cccc2ccccc12 (stereo not drawn)	< 500 nM
CC(=O)N1CCC2(CC1)NCCc1c2oc2cc(S(=O)(=O)c3cccc(F)c3)ccc12	< 500 nM
Cc1c(Cl)cccc1S(=O)(=O)Oc1ccc2c(c1)C1CCNCC1O2 (stereo not drawn) [Example 717]	< 500 nM
CC(C)Oc1ncccc1[S+]([O-])c1ccc2oc3c(c2c1)CCNC3 (stereo not drawn)	< 500 nM
O=S(=O)(c1ccc(Cl)cc1)c1cccc2c1OC1CNCCC21 (stereo not drawn)	< 500 nM

Tell me the measured Ki of COCC1NCCc2c1oc1ccc(S(=O)(=O)c3cccc(F)c3)cc21 (stereo not drawn) , please.
> 1000 nM

Requested read-out: Ki. Entry: O=S(=O)(c1ccccc1)c1ccc2c(c1)OC1CN(C3CCC3)CCC21 (stereo not drawn) [Example 606, trifluoroacetic acid salt]
< 500 nM

Param item = O=S(=O)(Oc1ccc2c(c1)OC1CNCCC21)c1c(Cl)nc2sccn12 (stereo not drawn) [Example 792] ; retrieve measured Ki.
< 500 nM

Give its Ki value. Item: "O=S(=O)(c1cc(F)cc(F)c1)c1ccc2c3c(oc2c1)C1(CCOCC1)NCC3"
< 500 nM

---

This listing pairs molecules with measured Ki.
- system under test: human 5-HT6 receptor (Homo sapiens)
- Construct: host or cells: CHO-K1 cells, stably transfected; membranes prepared in house
- test protocol: Human 5-HT6 Receptor Binding Assay ([3H]LSD displacement, scintillation beads)
- protocol conditions: membranes of CHO-K1 cells with recombinant human 5-HT6, 4 nM [3H]LSD; Table 1, class symbols; read-out: h5-HT6 (Ki)

Solved entries:
molecule	Ki
O=S(=O)(c1cccc(Cl)c1)c1ccc2c3c(oc2c1)C(CCBr)NCC3 (stereo not drawn)	< 500 nM
COc1cc(OC(C)C)cc(S(=O)(=O)c2ccc3c(c2)OC2CNCCC32)c1 (stereo not drawn) [Example 78]	< 500 nM
CC(=O)N1CCC2c3cc(NS(=O)(=O)c4ccc5ccccc5c4)ccc3OC2C1 (stereo not drawn)	> 1000 nM
O=S(=O)(c1ccc2c3c(oc2c1)CNCC3)c1cccc(Cl)c1F	< 500 nM
O=S(=O)(c1cccc(F)c1)c1ccc2c3c(oc2c1)C1(CCOC1)NCC3 (racemic) [Example 30]	< 500 nM

Fill in: Ki of CC(C)Oc1cccc(S(=O)(=O)c2ccc3c(c2)OC2CNCCC32)c1 (stereo not drawn) [Example 159] is ___
< 500 nM

Look up Ki: "CC1(C)NCCc2c1oc1cc(S(=O)(=O)c3ccc(N4CCCC4)nc3)ccc21"
> 1000 nM

Value lookup for Ki; key = Cc1c(Cl)cccc1S(=O)(=O)c1ccc2c(c1)OC1CNCCC21 (stereo not drawn)
< 500 nM

Please give the measured Ki for this molecule: COc1cc(OC)cc(S(=O)(=O)c2ccc3c(c2)OC2CNCCC32C)c1 (stereo not drawn) [Example 489]
< 500 nM

---

This section presents compounds with their documented pKi values.
- system under test: human 5-HT6 receptor (Homo sapiens)
- Construct: host or cells: CHO-K1 cells, stably transfected; membranes prepared in house
- test protocol: Human 5-HT6 Receptor Binding Assay ([3H]LSD displacement, scintillation beads)
- protocol conditions: membranes of CHO-K1 cells with recombinant human 5-HT6, 4 nM [3H]LSD; Table 1, class symbols; read-out: h5-HT6 (Ki)
pKi: −log10 of the molar value.

Some solved cases for reference:
compound	pKi
CC1(C)CNCc2oc3cc(S(=O)(=O)c4ccccc4)ccc3c21	> 6.30
O=S(=O)(c1cc(F)cc(F)c1)c1ccc2c3c(oc2c1)C1(CCOC1)NCC3 (stereo not shown) [Example 302]	> 6.30
Cc1cccc([S+]([O-])c2ccc3c(c2)OC2CNCCC32)n1 (stereo not shown)	< 6.00
CC(C)S(=O)(=O)Nc1ccc2c(c1)C1CCNCC1O2 (stereo not shown)	< 6.00
CC1(CN)NCCc2c1oc1cc(S(=O)(=O)c3cccc(F)c3)ccc21 (stereo not shown)	> 6.30
O=S(=O)(Oc1ccc2c(c1)C1CCNCC1O2)c1c(Cl)nc2sccn12 (stereo not shown)	> 6.30

Look up pKi: Cc1ccc(S(=O)(=O)Oc2ccc3c(c2)C2CCNCC2O3)cc1Cl (stereo not shown)
> 6.30

What value of pKi has been recorded for this entry: "O=S(=O)(c1ccc2c3c(oc2c1)CNCC3)c1cccnc1OCC(F)(F)F"
> 6.30

For the compound O=S(=O)(Nc1cccc(Cl)c1)c1ccc2c(c1)C1CCNCC1O2 (stereo not shown) , what pKi is on record?
6.00 to 6.30

Reported pKi for O=S(=O)(c1ccc2c(c1)C1CCNCC1O2)N1CCc2ccccc21 (stereo not shown) : what is it?
6.00 to 6.30

Which pKi is reported for this compound? O=S(=O)(Oc1ccc2c(c1)C1CCNCC1O2)c1cccc2cccnc12 (stereo not shown)
6.00 to 6.30

Can you look up the measured pKi of "CC1(C)NCCc2c1oc1cc(S(=O)(=O)c3ccccc3)ccc21" for me?
> 6.30

Can you share its pKi? I mean this compound: COc1cc2c(cc1S(=O)(=O)c1cccc(F)c1)C1CCNCC1O2 (stereo not shown)
> 6.30

---

Counter-ions that a name gives are not always drawn.
test readout: melting point

compound	melting point
CNC(=O)c1c(F)cccc1S(=O)(=O)c1ccc2c(c1)OC1CNCCC21 (stereo not drawn) (as salt: HCl)	> 200 °C
COc1cc(OC)cc(S(=O)(=O)c2ccc3c(c2)OC2CNCCC32C)c1 (stereo not drawn) (as salt: HCl) [Example 487]	283 to 285 °C
COc1ccc2sc(S(=O)(=O)c3ccc4c(c3)OC3CNCCC43)nc2c1 (stereo not drawn)	222 to 223 °C
O=S(=O)(c1cccc(F)c1)c1ccc2c3c(oc2c1)C1(CCCC1)NCC3 (as salt: HCl)	> 250 °C
O=C(COc1cccc(S(=O)(=O)c2ccc3c(c2)OC2CNCCC32)c1)N1CCCC1 (stereo not drawn) (as salt: HCl)	195 to 196 °C
COc1cccc(S(=O)(=O)c2ccc3c4c(oc3c2)C(C)(C)NCC4)c1 (as salt: HCl)	335 °C (dec.)

Which melting point value belongs to CC(C)Oc1cccc(S(=O)(=O)c2ccc3c4c(oc3c2)C2(CCOC2)NCC4)c1 (single isomer, unassigned) (as salt: HCl) [Example 32] ?
259 to 261 °C (dec.)

Give its melting point value. Item: Cc1cc(COc2cccc(S(=O)(=O)c3ccc4c(c3)OC3CNCCC43)c2)no1 (stereo not drawn) (as salt: HCl)
215 to 217 °C
